measurementNotes: Solubility in aqueous and biorelevant media
Type: physicochemical
assaySetup: simulated gastric fluid; HCl/KCl pH 1.0; [pH] 1.10; read-out: Solubility (mg/mL) [pH]
measuredMetric: solubility (mg/mL)
The reply should be a number in mg/mL, with the unit left off.

Given the entry CO[C@@H](C)c1c(NC(=O)Nc2cncc(C#N)c2)cnc2cc(C)nn12 [Example 1] , report its measured solubility.
0.049

---

measurementNotes: Solubility in aqueous and biorelevant media
Assay type: physicochemical
assaySetup: Free form; Water; [pH] 7.76; read-out: Solubility mg/mL [pH] Free form
measuredMetric: solubility (mg/mL)
State the answer as a number, implicitly in mg/mL.

Which solubility is listed for `CO[C@@H](C)c1c(NC(=O)Nc2ccnc(C(F)F)c2)cnc2cc(F)nn12` ?
0.029

---

Below, each entry is listed alongside its reported pIC50.
targetOrSystem: C-domain of MALT1 (amino acids 329-824) (Homo sapiens)
measurementNotes: MALT1 Biochemical Assay - Version 1 (fluorescence lifetime)
pIC50 is a log-scale quantity: -log10 of the concentration expressed in molar.

Examples with answers:
compound	targetOrSystem	pIC50
CO[C@@H](C)c1c(NC(=O)Nc2ccnc(C(F)F)c2)cnc2cc(F)nn12	C-domain of MALT1 (amino acids 329-824) (Homo sapiens)	7.74
CO[C@@H](C)c1c(NC(=O)Nc2cncc(C#N)c2)cnc2cc(C)nn12	C-domain of MALT1 (amino acids 329-824) (Homo sapiens)	7.04
CO[C@@H](C)c1c(NC(=O)Nc2cc(C(C)O)nc(C(F)(F)F)c2)cnc2cc(F)nn12 (stereo partly shown)	C-domain of MALT1 (amino acids 329-824) (Homo sapiens)	7.70

Field: next compound
What value of pIC50 has been recorded for this entry: `CO[C@@H](C)c1c(NC(=O)Nc2cncc(C#N)c2)cnc2cc(F)nn12`
7.51

---

measurementNotes: Solubility in aqueous and biorelevant media
Assay type: physicochemical
assaySetup: medium of pH 9.0 (composition not named), aqueous buffer; pH 9.0; [pH] 8.09; read-out: Solubility (mg/mL) [pH]
measuredMetric: solubility (mg/mL)
The figure you give is taken to be in mg/mL; do not add the unit.

Please look up its solubility: CO[C@@H](C)c1c(NC(=O)Nc2cnc(-n3nccn3)c(Cl)c2)cnc2cc(Cl)nn12 [Example 5]
0.0055

---

Entries annotated with measured IC50
targetOrSystem: C-domain of MALT1 (amino acids 329-824) (Homo sapiens, UniProt Q9UDY8)
Sequence (Q9UDY8 329-824): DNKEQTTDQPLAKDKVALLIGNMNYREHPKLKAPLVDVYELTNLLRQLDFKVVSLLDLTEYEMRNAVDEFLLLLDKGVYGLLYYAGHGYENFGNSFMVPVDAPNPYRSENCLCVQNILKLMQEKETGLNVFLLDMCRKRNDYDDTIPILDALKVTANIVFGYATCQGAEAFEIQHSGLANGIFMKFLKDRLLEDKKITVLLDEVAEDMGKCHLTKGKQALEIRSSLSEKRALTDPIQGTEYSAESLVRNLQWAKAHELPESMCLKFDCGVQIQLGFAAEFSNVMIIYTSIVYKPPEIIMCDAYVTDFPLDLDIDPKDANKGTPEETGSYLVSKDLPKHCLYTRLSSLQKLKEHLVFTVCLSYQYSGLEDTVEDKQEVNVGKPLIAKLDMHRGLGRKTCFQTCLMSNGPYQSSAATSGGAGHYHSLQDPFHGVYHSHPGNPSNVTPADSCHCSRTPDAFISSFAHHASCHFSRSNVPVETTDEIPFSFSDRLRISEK
measurementNotes: MALT1 Biochemical Assay - Version 1 (fluorescence lifetime)
Express your answer in nM, writing the number without its unit.

Reference set (3 entries):
molecule	resultUnit	IC50
CO[C@@H](C)c1c(NC(=O)Nc2cnc(-n3nccn3)c(C#N)c2)cnc2cc(F)nn12 [Example 18]	nM	4
COCCOc1ncc(Cl)cc1NC(=O)Nc1cnc2cc(Cl)nn2c1[C@H](C)OC [Example 21]	nM	9
CO[C@@H](C)c1c(NC(=O)Nc2cncc(Cl)c2)cnc2cc(Cl)nn12 [Example 35]	nM	10

Let us move to another entry and its IC50.
Kindly state the measured IC50 obtained for CO[C@@H](C)[C@H](OC)c1c(NC(=O)Nc2cnc(-n3nccn3)c(C#N)c2)cnc2cc(Cl)nn12 [Example 25] with C-domain of MALT1 (amino acids 329-824) (Homo sapiens, UniProt Q9UDY8).
4
